molecular target: T1, USUV strain Vienna-2001 whole virus (E protein on virions) (Usutu virus Vienna-2001, UniProt Q5WPU5, strain); experiment: ELISA; virus ELISA: PEG-precipitated USUV Vienna-2001 (8.1 × 10^6 pfu in 50 μl) coated on the plate, blocked with 5% BSA, scFv 2.5-20 μg/ml for 1 hr at 37°C, detected by HRP anti-His, 450 nm; conditions: one partner purified
T1 construct: envelope (E) protein of Usutu virus strain Vienna-2001, cut from the polyprotein, as it stands on whole virions coated on the plate; The assay used whole virus; The other proteins of the virion are not written; also called USUV Vienna-2001; source: virus expanded in C6/36 cells, precipitated with 8% PEG8000, resuspended in NTE buffer

| binder | binding result |
| --- | --- |
| scFv A12 (scFv, V domains shown, chicken light chain variable region (V lambda) of A12, N-terminal part of the scFv; long linker between V lambda and VH; chicken heavy chain variable region (VH) of A12; From a chicken immune phage display library in pComb3XSS; source: E. coli TOP10, purified (IMAC, HisTrap FF); not shown: His6, C-terminal, kept; HA, C-terminal, kept) VH: AVTLDESGGGLQTPGGALSLVCKASGFTFSSYHMGWVRQAPGKGLEYVAGIDNTGRYTDYGAAVKGRATISRDNGQSTLRLQLNNLRAEDTGTYFCAKSAYLGRGCWGAELCAGEIDTWGHGTEVIVSS VL: ALTQPSSVSANPGETVQITCSGSSNKYGNNYGWYQQKSPGSAPVTVIYDDDKRPSDIPPRFSGSKSGSTNTLTITGVQADDEAVYFCGAYDNSDSGIFGAGTALTVL | binds |
| scFv A9 (scFv, V domains shown, chicken light chain variable region (V lambda) of A9, N-terminal part of the scFv; long linker between V lambda and VH; chicken heavy chain variable region (VH) of A9; From a chicken immune phage display library in pComb3XSS; also called cross-reactive scFv; source: E. coli TOP10, purified (IMAC, HisTrap FF); not shown: His6, C-terminal, kept; HA, C-terminal, kept) VH: AVTLDESGGGLQTPGGTLSLVCKASGFTFSSVNMFWVRQAPGKGLEYVASISNTGSSTNYGAAVKGRATISRDNGQSTVRLQLNNLRAEDTATYFCAKDAYGYSFTVTPGYTIDAWGHGTEVIVSS VL: ALTQPSSVSANLGGTVKITCSGGGGSYGWYQQKSPGSAPVTVIYENTKRPSNIPSRFSGSKSGSTSTLTITGVQAEDEAVYYCGSTDNNNIFGAGTTLTVL | binds |
| scFv G1 (scFv, V domains shown, chicken light chain variable region (V lambda) of G1, N-terminal part of the scFv; long linker between V lambda and VH; From a chicken immune phage display library in pComb3XSS; Could not be held stably on the SPR chip; source: E. coli TOP10, purified (IMAC, HisTrap FF); not shown: His6, C-terminal, kept; HA, C-terminal, kept) VH: AVTLDESGGGLQTPGGGLSLVCKASGFDFSRYGMNWVRQAPGKGLEWVAGISPDGSGTWYATAVKGRATISRDNGQSTVRLQLNNLRAEDTATYYCTRGNGDSFDAWGHGTEVIVSS VL: ALTQPSSVSANLGGTVKITCSGGSYSYGWYQQKSPGSAPVTVIYYNDKRPSDIPSRFSGSKSGSTGTLTITGVQADDEAVYFCGGFDSSAGYVGIFGAGTTLTVL | binds |
